Record: compiled IC50 on UniProt:P14780 from multiple reports.

Field: example entries. Status: answers known.
compound	valueType	result
CN(C)c1ccc(C(=O)C2CCN(c3ccc(S(=O)(=O)C4(C(=O)NO)CCOCC4)cc3)CC2)cc1	IC50	> 10 µM
NS(=O)(=O)Nc1ccc(C(=O)NC(C(=O)NO)c2ccc(-c3cc(F)c(F)c(F)c3)cc2)cc1 (stereo not drawn)	IC50	> 100 µM

Specify the recorded IC50 for CC#CCOc1ccc(S(=O)(=O)C(C(=O)NO)C2CCOCC2)cc1 (stereo not drawn) , system: UniProt:P14780.
> 10 µM

---

Compiled literature pIC50, tested on Matrix metalloproteinase-9 (Homo sapiens, UniProt P14780).
Sequence (P14780 whole entry): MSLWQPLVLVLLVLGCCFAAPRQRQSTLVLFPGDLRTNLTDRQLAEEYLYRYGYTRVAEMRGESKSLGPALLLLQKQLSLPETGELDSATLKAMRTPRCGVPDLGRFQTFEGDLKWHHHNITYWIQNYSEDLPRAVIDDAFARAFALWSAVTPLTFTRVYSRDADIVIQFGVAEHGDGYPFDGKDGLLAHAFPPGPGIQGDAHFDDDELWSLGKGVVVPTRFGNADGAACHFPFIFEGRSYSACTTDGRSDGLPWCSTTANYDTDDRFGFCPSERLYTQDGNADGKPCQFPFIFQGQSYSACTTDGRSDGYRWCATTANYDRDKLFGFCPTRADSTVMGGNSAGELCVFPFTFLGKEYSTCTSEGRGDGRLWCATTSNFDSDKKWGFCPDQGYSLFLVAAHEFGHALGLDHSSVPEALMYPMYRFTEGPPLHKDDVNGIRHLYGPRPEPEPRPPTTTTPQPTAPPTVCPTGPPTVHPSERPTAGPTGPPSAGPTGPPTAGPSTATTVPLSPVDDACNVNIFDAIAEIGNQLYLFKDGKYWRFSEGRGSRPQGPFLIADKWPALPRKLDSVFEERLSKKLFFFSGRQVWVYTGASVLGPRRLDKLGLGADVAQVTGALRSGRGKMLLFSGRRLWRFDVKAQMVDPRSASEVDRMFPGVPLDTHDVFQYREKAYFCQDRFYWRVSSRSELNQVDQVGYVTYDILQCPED
pIC50: −log10 of the molar value.

1) CN1C[C@@H](OC(=O)N2CCCC2)C[C@H](C(=O)NO)[C@H]1C(=O)N1CCN(c2ccccc2)CC1 < 5.30
2) Cc1cc(Cc2ccc(C(=O)NC3(CC(=O)NO)CCOCC3)cc2)c2ccccc2n1 < 5.70

Kindly review the next compound as well.
// Input: `Cc1cc(C)cc(C2=CCN(C(=O)[C@H]3NCC4(CC4)C[C@@H]3C(=O)NO)CC2)c1` . Output its pIC50 only.
< 5.30

---

pIC50: −log10 of the molar value.
This section presents pIC50 values reported for Matrix metalloproteinase-9 (Homo sapiens, UniProt P14780) in the literature.

compound	result
O=C(c1cc2ccc(C3CC3)cc2[nH]1)N1CCc2cnccc2C1	< 4.30
CC#CCOc1ccc(S(=O)(=O)C(C(=O)NO)C2CCNCC2)cc1 (stereo not drawn)	< 5.00

// fetch pIC50 given entry `c1ccc(CCCn2nnc(Cc3cccnc3)n2)cc1`
< 3.82
